Test system: MS2 coat protein
Test: apparent KD of MS2 coat protein; higher = weaker reporter binding
Details: Eterna round: R107; input ligand: none
# if value of apparent KD of MS2 coat protein reaches 20 nM, tag YES; if it stays below, tag NO

SEQUENCE STRING | CAT
CCUCAAUAGACGGCCGCCACUGAAUCAUGCGGAUACAUGAGGAUCACCCAUGUGGGUGUGGUACGCAGGACCGGGUCAAGACCCG [#13 Same State - Tryptophan B] | YES
GCACCAGGUACGGAUACCAGAGCAAGCCAAAUGAGUGACCAUGAGGAUCACCCAUGGUUGCUCCCUUGGCAGCCGUACCUGGUGC [ETB NP+V+V2 #13 Diff Apt, +-Same Structure] | NO
AUACAUGAGGAUCACCCAUGUCAUUCAGAAGGAGCGUCAUUUUAGACAGGUAGGUCGCUGAUAUUAUUCUUAUACUUUAUGUUUA [JR_ExcArginiA_Sub022] | NO
AGUAACAUGAGGAUCACCCAUGUAUGAGAAGGAGCGUGUUUUAACACAGGUAGGUCGCUCAAUAUUAAUUUAUUAGAUACAUUUA [JR_SSArginiA_Sub006] | YES
UAUCCACAUGAGGAUCACCCAUGUAGGGAAGGAGCGGUGGUUGCACCAGGUAGGUCGCCUUGCUGAGGAUAACCGGUGGAAUCGU [Exclusion - Arginine A (Freestyle 28)] | NO
AGGGAAUGAAUAGAAUGAGAUGACACAGAAGGAGCGCCGAUUAAGGCAGGUAGGUCGCUGACAACAUGAGGAUCACCCAUGUUAA [#11 Same State - Arginine A] | NO
GCUUGGGUCGCAAGGCCCUGGCGUUGCGAUACCAGCACGGUAACGUGCCCUUGGCAGCGCACAUGAGGAUCACCCAUGUGGUGCG [#1 Exclusion - Theophylline A Attempt #22 (HarryS)] | NO
AAUUAUCACGGAAGGAGCGUCAUGAAAUUGAUACAUGAGGAUCACCCAUGUGAGUGUUAGAGACAGGUAGGUCGCCGAUUAUUGA [JR_AAArginiB_Sub028] | YES
UGUAUGGACUGAAGGAGCGGAAGAUAACCUGAGGAUCACCCGGGUAAUAAGGCGAAAGCCUUCCAGGUAGGUCGCAGUCCAUACU | YES
UGUAUGGACUGAAGGAGCGGGAAAUAAACCUGAGGAUCACCCAGGUAAUAGGCGAAAGCCACCCAGGUAGGUCGCAGUCCAUACU | NO

====

Test system: MS2 coat protein
Assay: apparent KD of MS2 coat protein; designed switch direction (-1 OFF switch, 1 ON switch): 1; higher = weaker reporter binding
Conditions: input ligand: none

SEQUENCE STRING | EXPERIMENTAL SYSTEM | apparent KD of MS2 coat protein, nM
GGAGCCGGCCUAGGAUAUUUCAUUUUAAAACAUGAGGAUCACCCAUGUAGGCCAGAAGGCCUUGGGAAGAAGGAGGUCGGCUCC [Loop Effect - U24,U25,U26] (Eterna round: R96, puzzle: Same State NG 2) | MS2 coat protein | 69.3
CGGGUCGUGCUAGGAUAUCUAGGAUAUGGACGAGGAUUACCCGAGCAGCAUUAGCGCACCAGAGGAGAGAAGGAGCGUGAUGCG [pwkr ssNG2 2F5 2FMN.15] (Eterna round: R96, puzzle: Same State NG 2) | MS2 coat protein | 109
UUUUUGAUCCGAGGAUAUCCUUUUUUCUUACAUGAGGAUCACCCAUGUAAAGGGAUUGAGUUGUAGGAGAAGGCGGUUUUUGUU [JR_SSNG2_Sub059] (Eterna round: R96, puzzle: Same State NG 2) | MS2 coat protein | 35
GGAAUGUGAUGUUACAUGAGGAUCACCCAUGUAGUGACAACUAAGGAUAUCUGAAAAGAAGGAGAGGAGAAGGUAGGAUCACAA [AK SSNG3-V2-15] (Eterna round: R96, puzzle: Same State NG 3) | MS2 coat protein | 58.9
GUACAGAUUAUAGGAUAUCACGUCGAUUAGACGUGAGAAGGAUAAUCACACAUGAAUAUUAAUACAUGAGGAUCACCCAUGUAC [SSNG1/17-A2] (Eterna round: R96, puzzle: Same State NG 1) | MS2 coat protein | 17
AGAUCAUGACGAGGAUAUGGUACAUGAGGAUCACCCAUGUAUGUACUAUAACCCGAAUGAGGAAUCCAGAAGGCGUCGUGGUCA [JL SSNG2 1.13] (Eterna round: R96, puzzle: Same State NG 2) | MS2 coat protein | 93
ACCGAGAGGCUAGGAUAUUAGGGCAUUUGCAUAUGAGAAGGAGCCAGAUGGCCACAUGAGGAUCACCCAUGUCAACCCUGGACA [Eternabot solution 4] (Eterna round: R96, puzzle: Same State NG 1) | MS2 coat protein | 18.2
UCUGCAAGAACAGGAUAUGGGUUCAGAGCGGGAGUGCGCUUUGACACAUGAGGAUCACCCAUGUCCCAGAAGGGUUCAUGCGGC [Eseseste] (Eterna round: R96, puzzle: Same State NG 2) | MS2 coat protein | 364
GCUCGUGGUAUUGUCUACAUGAGGAUCACCCAUGUGGGUGCGGAGGAUAUCUACGUGUCUCAUGUAGAGAAGGUCGUCACGAGC [SameState NG3 #100] (Eterna round: R96, puzzle: Same State NG 3) | MS2 coat protein | 102
